# protocol.notes: Metabolic stability in human intestine S9 fraction assessed as compound remaining at 10 uM after 60 mins by HPLC analysis in presence of NADP
# Assay type: ADME, tissue-based
# conditions.used: read-out: Stability
parameter.measured: remaining at 1 h, 10 µM (%)
Kindly provide the numeric value in % only, without the unit symbol.

- compound: "COC(=O)[C@H](CCSC)NP(=O)(OC[C@H]1O[C@@H](n2cnc3c(=O)[nH]c(N)nc32)[C@](C)(O)[C@@H]1O)Oc1cccc2ccccc12 (stereo partly drawn)"
  remaining at 1 h, 10 µM [%]: 42
- compound: "CC[C@H](C)[C@H](NP(=O)(OC[C@H]1O[C@@H](n2cnc3c(=O)[nH]c(N)nc32)[C@](C)(O)[C@@H]1O)Oc1cccc2ccccc12)C(=O)OCc1ccccc1 (stereo partly drawn)"
  remaining at 1 h, 10 µM [%]: 52

Query: Given CC(C)[C@H](NP(=O)(OC[C@H]1O[C@@H](n2cnc3c(=O)[nH]c(N)nc32)[C@](C)(O)[C@@H]1O)Oc1cccc2ccccc12)C(=O)OCc1ccccc1 (stereo partly drawn) , respond with its remaining at 1 h, 10 µM.
Response: 24
